tested on: Malme-3M; assay: NCI tumour cell line growth inhibition, 48 h
Structures can show the parent of a compound that is named as a salt. The source made the active and inactive calls. Rule as the data show it: active = GI50 up to about 1.1 µM and inactive = higher.
testReadout: GI50

Solved cases below.
{"compound": "COc1ccc2c(=O)c([Se]c3coc4cc(OC)ccc4c3=O)coc2c1", "systemUnderTest": "Malme-3M", "valueObserved": "34.3 µM (inactive)"}
{"compound": "Cc1nc(N)c(N2CCN([N+](=O)[O-])CC2)c(O)n1", "systemUnderTest": "Malme-3M", "valueObserved": "> 100 µM (inactive)"}

Below are 8 compounds. Give each one its GI50.
1. O=C1CCC2(c3ccc(F)cc3)Nc3ccccc3N12 (centres undefined)
2. Cc1cc(N(CCOS(C)(=O)=O)CCOS(C)(=O)=O)ccc1/C=N/c1ccc(-c2csc(-c3ccccc3)n2)c(Cl)c1
3. Cc1[nH]n(-c2nc(O)c(C)c(=O)[nH]2)c(=O)c1CCO
4. Nc1ncnc2c1nnn2C1CCC(CP(=O)(O)O)C1 (centres undefined)
5. CCOC(=O)C1(Cc2ccc3c(c2)CCC3)Cc2cc3c(cc2C1=O)CCC3 (centres undefined)
6. S=C(N/N=C/c1ccccc1)NC1CC(c2ccccc2)Oc2ccccc21 (centres undefined)
7. CCOC(=O)C(=O)CC(=O)C1=C(c2ccccc2OC)CC(c2cccs2)=CC1=O
8. COc1cc2c(c(OC)c1OC)C(=O)[C@H](Br)[C@H]2NC(=O)NCCCl

Result:
> 100 µM (inactive)
11.9 µM (inactive)
> 100 µM (inactive)
> 100 µM (inactive)
> 61.2 µM (inactive)
68.1 µM (inactive)
> 100 µM (inactive)
> 100 µM (inactive)

# per-item lookup of GI50; items listed below
1. CCOC(=O)/C(C#N)=C\c1ccc(N(CCC(=O)O)CCC(=O)O)c(I)c1
2. COc1c2ccoc2cc2oc(=O)ccc12 [BERGAPTEN]
3. COc1ccc(C2Oc3c(cccc3OC)C=C2[N+](=O)[O-])cc1 (centres undefined)

Result:
1: > 10 µM (inactive); 2: > 100 µM (inactive); 3: 2.54 µM (inactive)

Okay, here is my list. What is GI50 for each of these?
1. NCCSSCCN [CYSTAMINE HYDROCHLORIDE]
2. O=S(=O)(/N=C(\NO)Nc1ccc(Cl)cc1)c1cccc2nsnc12

Result:
1. > 100 µM (inactive)
2. 21.2 µM (inactive)

Parameter requested: GI50. Apply to each item below.
1. O=Cc1ccc(OCc2cccc(COc3ccc(/C=N\Nc4ccc([N+](=O)[O-])cc4[N+](=O)[O-])cc3)n2)cc1
2. O=C(Nc1cccc(-c2cn3ccccc3n2)c1)c1ccncc1
3. O=C1C(Cl)N(c2ccc(Cl)cc2)C1c1c[nH]c2ccccc12 (centres undefined)
4. CSC1=N/C(=C\c2ccccc2)C(=O)N1CN1CCOCC1
5. Cc1cc(O)c2c(c1)C(C1OC(CO)C(O)C(O)C1O)c1cc(O)cc(O)c1C2=O (centres undefined)

Result:
1: > 100 µM (inactive); 2: 29.3 µM (inactive); 3: 12.5 µM (inactive); 4: 57.3 µM (inactive); 5: > 100 µM (inactive)
